All values here come from the supplement of paper PMC10567573.

B1: SCARA5 (parent)
chain: VTEDLRLKDWEHSIALRNISLAKG

variants of: B1; test: protein stability index of a GFP-peptide fusion (GPS, HEK-293T) (PSI 1-6); higher = more stable; settings: c terminus: a fixed tail appended;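 further: lentivirally expressed fusions sorted by FACS into six bins by GFP to DsRed ratio, PSI derived from sequencing read proportions per bin multiplied by bin number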

{"CHANGES": "E3P", "protein stability index": 3.39}
{"CHANGES": "R6N", "protein stability index": 3.22}
{"CHANGES": "W10E", "protein stability index": 4.62}
{"CHANGES": "A22M", "protein stability index": 2.82}
{"CHANGES": "G24C", "protein stability index": 2.83}
{"CHANGES": "R6G", "protein stability index": 3.53}
{"CHANGES": "E11C", "protein stability index": 2.47}
{"CHANGES": "L7M", "protein stability index": 3.45}
{"CHANGES": "E3F", "protein stability index": 1.85}
{"CHANGES": "E3Q", "protein stability index": 2.63}
{"CHANGES": "S20W", "protein stability index": 3.15}
{"CHANGES": "L16M", "protein stability index": 3.45}
{"CHANGES": "G24L", "protein stability index": 2.04}
{"CHANGES": "I14K", "protein stability index": 3.86}
{"CHANGES": "D9Y", "protein stability index": 2.69}
{"CHANGES": "D4F", "protein stability index": 2.03}
{"CHANGES": "T2W", "protein stability index": 2.46}
{"CHANGES": "I14H", "protein stability index": 3.47}
{"CHANGES": "H12Q", "protein stability index": 3.43}
{"CHANGES": "I14R", "protein stability index": 3.64}
{"CHANGES": "G24A", "protein stability index": 3.4}
{"CHANGES": "D4W", "protein stability index": 2.05}
{"CHANGES": "V1W", "protein stability index": 3.42}
{"CHANGES": "D4C", "protein stability index": 2.53}
{"CHANGES": "A22H", "protein stability index": 3.9}
{"CHANGES": "E3M", "protein stability index": 2.75}
{"CHANGES": "V1Y", "protein stability index": 2.83}
{"CHANGES": "S13C", "protein stability index": 3.08}
{"CHANGES": "S20K", "protein stability index": 2.94}
{"CHANGES": "K23C", "protein stability index": 3.1}
{"CHANGES": "R6L", "protein stability index": 3.29}
{"CHANGES": "L21E", "protein stability index": 4.4}
{"CHANGES": "G24F", "protein stability index": 2.49}
{"CHANGES": "A22D", "protein stability index": 3.73}
{"CHANGES": "I14E", "protein stability index": 4.03}
{"CHANGES": "D9F", "protein stability index": 2.44}
{"CHANGES": "A22E", "protein stability index": 3.69}
{"CHANGES": "I19A", "protein stability index": 3.71}
{"CHANGES": "D9M", "protein stability index": 1.96}
{"CHANGES": "E11I", "protein stability index": 1.91}
{"CHANGES": "L16D", "protein stability index": 4.32}
{"CHANGES": "L21C", "protein stability index": 3.84}
{"CHANGES": "I19N", "protein stability index": 3.77}
{"CHANGES": "I19Y", "protein stability index": 3.22}
{"CHANGES": "K8N", "protein stability index": 3.48}
{"CHANGES": "R17W", "protein stability index": 2.26}
